# Tested on: Neisseria gonorrhoeae
# test: EC50 determination: plate-based broth growth assay (absorbance at 600 nm) of Neisseria gonorrhoeae
# Assay type: cell-based
# test_context: absorbance 600 nm after 20 hours at 37° C./5% CO2, read-out: IC50 (Inhibitory concentration) against Neisseria gonorrhoeae
pIC50: −log10 of the molar value.
assay_metric: pIC50

* Clc1ccc2nc(Nc3cocn3)oc2c1 | ≥ 6.00
* Clc1ccc2nc(Nc3nnco3)oc2c1 | ≥ 6.00
* FC(F)(F)c1ccc2[nH]c(Nc3nnco3)nc2c1 | ≥ 6.00
* FC(F)(F)c1ccc2oc(Nc3nccs3)nc2c1 | ≥ 6.00
* CN1CCC[C@@H]1c1nnc(Nc2nc3cc(C(F)(F)F)ccc3o2)o1 | ≥ 6.00
* Clc1ccc2nc(Nc3nnc(CN4CCCC4)[nH]3)oc2c1 | ≥ 6.00
* C#Cc1nnc(Nc2nc3ccc(Cl)cc3o2)o1 | ≥ 7.00
* CC(C)NC(=O)c1csc(Nc2nc3cc(C(F)(F)F)ccc3o2)n1 | ≥ 6.00
* CN1CCN(c2cnc(Nc3nc4ccc(C(F)(F)F)cc4o3)s2)CC1 | ≥ 6.00
* COc1cc2oc(Nc3nnco3)nc2cc1Cl | ≥ 7.00
* Cc1nnc(Nc2nc3cc(C(F)(F)F)ccc3o2)o1 | ≥ 6.00
* O=C(Nc1ccccc1)c1csc(Nc2nc3cc(C(F)(F)F)ccc3o2)n1 | ≥ 6.00
* FC(F)(F)c1ccc2oc(Nc3nc4ccncc4o3)nc2c1 | ≥ 6.00
* CN(C)Cc1nnc(Nc2nc3cc(C(F)(F)F)ccc3o2)o1 | ≥ 6.00
* Fc1cc2oc(Nc3nnco3)nc2cc1OC(F)(F)F | ≥ 7.00
* N#Cc1nnc(Nc2nc3cc(F)ccc3o2)o1 | ≥ 6.00
* Clc1ccc2nc(Nc3cnoc3)oc2c1 | ≥ 4.00
* O=C(NC1CC1)c1nnc(Nc2nc3ccc(C(F)(F)F)cc3o2)o1 | ≥ 4.00
* COc1cc2oc(Nc3nnco3)nc2cc1F | ≥ 6.00
* FC(F)(F)c1ccc2oc(Nc3nnc(CN4CCOCC4)o3)nc2c1 | ≥ 6.00
* Clc1ccc2oc(Nc3nc4ccccc4o3)nc2c1 | ≥ 7.00
* Cc1cc2nc(Nc3nnco3)oc2cc1Cl | ≥ 7.00
* Cc1nnc(Nc2nc3c(F)cccc3o2)o1 | ≥ 6.00
* Clc1ccc2nc(Nc3nnc[nH]3)oc2c1 | ≥ 6.00
* FC(F)(F)c1ccc2oc(Nc3nnc(C(F)(F)F)o3)nc2c1 | ≥ 4.00

Source of measurements: patent US20190194179A1
